B1: EHEE_rd2_0601 (parent)
chain: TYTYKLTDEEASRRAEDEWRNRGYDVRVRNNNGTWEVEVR

Variants of: B1
assay-procedure: folding stability dG (cDNA display proteolysis); higher = more stable
setup-conditions: PBS, room temperature
quantity: folding stability dG

Here is how some variants turned out for folding stability dG.
V28C | 0.766 kcal/mol
S12E | -0.128 kcal/mol
D25P | 0.219 kcal/mol
E36T | 1.27 kcal/mol
T3M | 1.18 kcal/mol
Y2W | 2.04 kcal/mol
Y24C | 1.21 kcal/mol
T34G | 0.674 kcal/mol
Y2D | 0.375 kcal/mol
Y2G | 0.413 kcal/mol

Report folding stability dG, nothing else, for this variant: V39Y
-0.431 kcal/mol

Check the records and state folding stability dG for R14N
1.04 kcal/mol

Name the recorded folding stability dG of the variant listed here: T34M
1.58 kcal/mol

Fill in reported folding stability dG for this entry: S12L
1.39 kcal/mol

Output folding stability dG of K5T
1.95 kcal/mol
